Test system: HEK-293T
Experiment: Multiplex assay against HEK293T
Type: toxicity, cell-based
Conditions: human, 12 h, 10 µM, compound concentration 10 uM, replicate 2
Below is a list of entries, each paired with its recorded Population Mitochondria Different-Phenotype (%) value.
Could you give me the number in %? Just the number is fine.

Reference set (2 entries):
> print(dat)
                                   compound  endpoint.value
1  CCOc1c2c(c(OCC)c3ncccc13)CN(c1ccc(CS(=O)(=O)NC(=O)Cc3ccccc3OC)cc1C)C2=O              72
2  C[C@@H]1C[C@H]2[C@@H]3CCC4=CC(=O)C=C[C@]4(C)[C@@]3(F)[C@@H](O)C[C@]2(C)[C@@]1(O)C(=O)CO              69

# get_value(readout='Population Mitochondria Different-Phenotype (%)', item= CCCN1CCC[C@@H]2Cc3n[nH]cc3C[C@H]21.Cl [QUINPIROLE HYDROCHLORIDE] )
69

* * *

System: HEK-293T
Test: Multiplex assay against HEK293T
Type: toxicity, cell-based
Details: human, 24 h, 1 µM, compound concentration 1 uM, replicate 2
Quantity kind: Population Pyknosed Nuclei (%)
State just the number; it will be interpreted in %.

Any idea what Population Pyknosed Nuclei (%) came out for `Cc1nc2ccc(Oc3ccc(F)cc3)cc2c(=O)n1C[C@H]1CCCN(C(C)C)C1.Cl` on HEK-293T?
16

API: value(readout= Population Pyknosed Nuclei (%), system= HEK-293T, query= COc1cc(NC(=O)CCN2CCC(OC(=O)Nc3ccccc3-c3ccccc3)CC2)c(Cl)cc1CNC[C@H](O)c1ccc(O)c2[nH]c(=O)ccc12 [BATEFENTEROL] )
9

Give recorded Population Pyknosed Nuclei (%) with HEK-293T for the following molecule: `Oc1c(CN2CCN(c3ccccn3)CC2)cc(Cl)c2cccnc12`
8

* * *

Here, each record is paired with measured Population Apoptotic (%) data.
Tested on: HEK-293T
Assay: Multiplex assay against HEK293T
Format: toxicity, cell-based
Details: human, 48 h, 1 µM, compound concentration 1 uM, replicate 2
Numbers only here, please. The scale is %.

Request - read-out Population Apoptotic (%) | tested on HEK-293T | compound `Cc1ccc(-c2ccc(F)cc2COc2ccc(CCC(=O)O)cc2)cc1`
36

What measured Population Apoptotic (%) is associated with `CCCn1c(=O)c2[nH]c(C3CCCC3)nc2n(CCC)c1=O` on HEK-293T?
39

Lookup: Population Apoptotic (%) / HEK-293T / CN1CCN2c3ncccc3Cc3ccccc3C2C1 (stereo unspecified) [MIRTAZAPINE]
44

Form field: Population Apoptotic (%) recorded for Cc1ccc(F)cc1C(=O)Nc1ccc(C(=O)N2Cc3cccn3Cc3ccccc32)c(Cl)c1 [LIXIVAPTAN] with HEK-293T (enter value)
17

Return Population Apoptotic (%) measured with HEK-293T given this compound: CSc1ccccc1N1CCN(CCCCCC(=O)NC2CCCc3ccccc32)CC1.Cl (stereo unspecified)
45

Quick check: Population Apoptotic (%) on HEK-293T, item `O=C(NCCO)c1cccc(-c2cc(Nc3ccc(OC(F)(F)F)cc3)ncn2)c1` ?
37

* * *

Tested on: HEK-293T
Assay: Multiplex assay against HEK293T
Assay type: toxicity, cell-based
Details: human, 24 h, 10 µM, compound concentration 10 uM, replicate 2
Quantity kind: Population Apoptotic (%)
Just the number in %, nothing appended.

Name the recorded Population Apoptotic (%) for CC(C)(C)c1ccc(S(=O)(=O)Nc2ccc(Cl)cc2C(=O)c2cc[n+]([O-])cc2)cc1 [VERCIRNON] .
28

What Population Apoptotic (%) value was documented for this compound, `COc1cc(C(=O)N(CCCc2ccccc2)Cc2ccc(CC(=O)O)cc2)cc(OC)c1C` ?
42

Any idea what its Population Apoptotic (%) is? The compound is `COc1c(C)cc(NC(=O)c2nn(Cc3ccc(F)cc3)c3c2CN(C(=O)c2ccc[nH]2)C[C@]3(C)C(N)=O)cc1C`
67

# Population Apoptotic (%) lookup, item CC(=O)NCCc1c(Cc2ccccc2)[nH]c2ccccc12 [LUZINDOLE]
28

What does the data say about its Population Apoptotic (%)? Entry: `Cc1ccc(-c2ccc(F)cc2COc2ccc(CCC(=O)O)cc2)cc1`
51

Which Population Apoptotic (%) is reported for this compound? `COc1ccccc1N1CCN(CCCCNC(=O)c2ccc3ccccc3c2)CC1.Cl`
60

// returns reported Population Apoptotic (%) for input Cc1ccccc1C(=O)Nc1ccc(C(=O)N2CCCC(N(C)C)c3ccccc32)cc1.Cl (centres undefined)
44

Look at this compound and give its reported Population Apoptotic (%). C[C@@H]1C[C@H]2[C@@H]3CCC4=CC(=O)C=C[C@]4(C)[C@@]3(F)[C@@H](O)C[C@]2(C)[C@@]1(O)C(=O)CO [DEXAMETHASONE]
44

What value of measured Population Apoptotic (%) is listed for `CC[C@H]1OC(=O)[C@H](C)[C@@H](O[C@H]2C[C@@](C)(OC)[C@@H](O)[C@H](C)O2)[C@H](C)[C@@H](O[C@@H]2O[C@H](C)C[C@H](N(C)C)[C@H]2O)[C@@]2(C)CC(C)=C(O2)[C@H](C)[C@@H](O)[C@]1(C)O` ?
70
